- run description: Inhibition of human Cx43 expressed in Escherichia coli LB2003 cells in medium containing 8 mM K+ and 10 uM IPTG by measuring cell growth after 18 hrs by plate reader
pIC50: −log10 of the molar value.
recorded endpoint: pIC50

A. N[C@@H]1[C@@H](O)[C@@H](O[C@@H]2[C@@H](O)[C@H](O[C@H]3O[C@H](CNC(=O)CCCc4cc5ccc6cccc7ccc(c4)c5c67)[C@@H](O)[C@H](O)[C@H]3O)[C@@H](N)C[C@H]2N)O[C@H](CO)[C@H]1O
B. NC[C@H]1O[C@H](O[C@H]2[C@H](O)[C@@H](O[C@H]3O[C@H](COCc4ccc(Cl)cc4)[C@@H](OCc4ccc(Cl)cc4)[C@H](N)[C@H]3O)[C@H](N)C[C@@H]2N)[C@H](O)[C@@H](O)[C@@H]1O
Quick check, higher pIC50 between A and B ? Pick one; state its label. A
(A: 5.07, B: 4.77)

----------
- run description: Inhibition of human Cx43 expressed in Escherichia coli LB2003 cells in medium containing 8 mM K+ and 10 uM IPTG by measuring cell growth after 18 hrs by plate reader
recorded endpoint: IC50 (µM)

Field: example entries. Status: answers known.
Just so you know, measured IC50 for `Cc1ccc(COC[C@H]2O[C@H](O[C@@H]3[C@@H](O)[C@H](O[C@H]4O[C@H](CN)[C@@H](O)[C@H](O)[C@H]4O)[C@@H](N)C[C@H]3N)[C@H](O)[C@@H](N)[C@@H]2OCc2ccc(C)cc2)cc1` came out at 3.1

Just so you know, measured IC50 for `NC[C@H]1O[C@H](O[C@H]2[C@H](O)[C@@H](O[C@H]3O[C@H](COc4ccc(Cl)cc4)[C@@H](O)[C@H](N)[C@H]3O)[C@H](N)C[C@@H]2N)[C@H](O)[C@@H](O)[C@@H]1O` came out at 8.9

Just so you know, measured IC50 for `NC[C@H]1O[C@H](O[C@H]2[C@H](O)[C@@H](O[C@H]3O[C@H](COCc4ccc5ccccc5c4)[C@@H](OCc4ccc5ccccc5c4)[C@H](N)[C@H]3O)[C@H](N)C[C@@H]2N)[C@H](O)[C@@H](O)[C@@H]1O` came out at 6.2

Just so you know, measured IC50 for `NC[C@H]1O[C@H](O[C@H]2[C@H](O)[C@@H](O[C@H]3O[C@H](COCc4cccc(-c5ccccc5)c4)[C@@H](OCc4cccc(-c5ccccc5)c4)[C@H](N)[C@H]3O)[C@H](N)C[C@@H]2N)[C@H](O)[C@@H](O)[C@@H]1O` came out at 5.5

P. COc1ccc(COC[C@H]2O[C@H](O[C@@H]3[C@@H](O)[C@H](O[C@H]4O[C@H](CN)[C@@H](O)[C@H](O)[C@H]4O)[C@@H](N)C[C@H]3N)[C@H](O)[C@@H](N)[C@@H]2OCc2ccc(OC)cc2)cc1
Q. Cc1ccc(OC[C@H]2O[C@H](O[C@@H]3[C@@H](O)[C@H](O[C@H]4O[C@H](CN)[C@@H](O)[C@H](O)[C@H]4O)[C@@H](N)C[C@H]3N)[C@H](O)[C@@H](N)[C@@H]2O)cc1
R. NC[C@H]1O[C@H](O[C@H]2[C@H](O)[C@@H](O[C@H]3O[C@H](COCc4ccc(F)cc4)[C@@H](OCc4ccc(F)cc4)[C@H](N)[C@H]3O)[C@H](N)C[C@@H]2N)[C@H](O)[C@@H](O)[C@@H]1O
S. N[C@@H]1[C@@H](O)[C@@H](O[C@@H]2[C@@H](O)[C@H](O[C@H]3O[C@H](CNC(=O)c4ccccc4-c4c5ccc(=O)cc-5oc5cc(O)ccc45)[C@@H](O)[C@H](O)[C@H]3O)[C@@H](N)C[C@H]2N)O[C@H](CO)[C@H]1O
T. NC[C@H]1O[C@H](O[C@H]2[C@H](O)[C@@H](O[C@H]3O[C@H](COc4ccc(-c5nc6ccccc6[nH]5)cc4)[C@@H](O)[C@H](N)[C@H]3O)[C@H](N)C[C@@H]2N)[C@H](O)[C@@H](O)[C@@H]1O
List from greatest to least IC50. Rank the items, then write their labels in that order. R, T, S, Q, P
(R: 26.6 µM, T: 17.7 µM, S: 8.9 µM, Q: 6.2 µM, P: 4.1 µM)
